Data credit: patent EP0973746B1

Recorded pIC50 values (Epithelial Cell Kinase (ECK) (Homo sapiens, UniProt P29317)) are given below.
Just so you know, pIC50 here is -log10 of the concentration in molar units; reply with that number alone.

MOLECULE SMILES	ASSAYED SYSTEM	pIC50
COc1cc2ncc(C#N)c(Nc3cc(O)c(Cl)cc3F)c2cc1OC	Epithelial Cell Kinase (ECK) (Homo sapiens, UniProt P29317)	9.00
COc1cc2c(Nc3cc(O)c(Cl)cc3F)c(C#N)cnc2cc1OCCCN1CCOCC1	Epithelial Cell Kinase (ECK) (Homo sapiens, UniProt P29317)	7.39
CCN(CC)CC=CC(=O)Nc1cc2c(Nc3ccc(F)c(Cl)c3)c(C#N)cnc2cc1OC	Epithelial Cell Kinase (ECK) (Homo sapiens, UniProt P29317)	4.68
N#Cc1cnc2ccc(NC(=O)C#CCN3CCCCC3)cc2c1Nc1cccc(Br)c1	Epithelial Cell Kinase (ECK) (Homo sapiens, UniProt P29317)	4.39
C=CC(=O)Nc1ccc2ncc(C#N)c(Nc3cccc(I)c3)c2c1	Epithelial Cell Kinase (ECK) (Homo sapiens, UniProt P29317)	4.64
N#Cc1cnc2ccc(NC(=O)C=CCN3CCOCC3)cc2c1Nc1ccc(F)c(Br)c1	Epithelial Cell Kinase (ECK) (Homo sapiens, UniProt P29317)	4.41
COc1cc2c(Nc3ccc(Cl)cc3F)c(C#N)cnc2cc1OCCCCl	Epithelial Cell Kinase (ECK) (Homo sapiens, UniProt P29317)	6.33
COc1cc2ncc(C#N)c(Nc3ccc(F)c(Cl)c3)c2cc1NC(=O)C=CCN1CCOCC1	Epithelial Cell Kinase (ECK) (Homo sapiens, UniProt P29317)	4.39

Proceeding to the next compound to report its pIC50.
Return reported pIC50; argument: "COc1ccc2ncc(C#N)c(Nc3ccc(Cl)cc3F)c2c1"
5.04

* * *

molecular target: recombinant human MEK 1 (MAPKK) and recombinant human ERK2 (MAPK); assay: Mitogen Activated Protein Kinase (MAPK) assay, two component coupled MEK 1 / ERK2; conditions: separate entries for the same compound = evaluated more than one time;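 also: MEK 1-activated ERK2 phosphorylates MBP or Myc peptide with 33P-ATP, filter capture and scintillation counting, inhibitor preincubated with ERK2 30 min at 0 °C, inhibition relative to uninhibited control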
MEASURE: IC50

Return reported IC50; argument: "CN(C)Cc1cc([N+](=O)[O-])cc2c(Nc3cccc(Br)c3)c(C#N)cnc12"
> 100 µM

Next record, please: "COc1cc2ncc(C#N)c(Nc3ccc(SC)cc3)c2cc1OC"
< 1 µM

* * *

tested on: SW620; test: Inhibition of cancer cell growth as measured by cell number, SW620; format: cell-based, human; details: Homo sapiens, SW-620, 48 h, read-out: IC50 SW620;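 also: SW620 was included as a cell line with little or no EGFR or HER2/neu expression, in contrast to receptor-overexpressing lines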
IC50 reference
Record the value in µg/mL, omitting the unit from your answer.

Example results:
MOLECULE SMILES	VALUE UNITS	IC50
CN(C)CC#CC(=O)Nc1ccc2ncc(C#N)c(Nc3ccc(F)c(Cl)c3)c2c1	µg/mL	0.1
N#Cc1cnc2ccc(NC(=O)C#CCN3CCCCC3)cc2c1Nc1cccc(Br)c1	µg/mL	0.1
CCN(CC)CC#CC(=O)Nc1ccc2ncc(C#N)c(Nc3cccc(Br)c3)c2c1	µg/mL	0.05
CC(C)N(CC#CC(=O)Nc1ccc2ncc(C#N)c(Nc3cccc(Br)c3)c2c1)C(C)C	µg/mL	0.1

Could you share what IC50 was measured for "CCN(CC)CC=CC(=O)Nc1ccc2ncc(C#N)c(Nc3cccc(Br)c3)c2c1" , tested on SW620?
0.8

Next record, please: "CN(C)CC=CC(=O)Nc1ccc2ncc(C#N)c(Nc3ccc(F)c(Cl)c3)c2c1"
0.4

* * *

tested on: CCL228; assay: Inhibition of cancer cell growth as measured by cell number, CCL228; format: cell-based; conditions: Homo sapiens; cell number, Sulforhodamine B, 48 hours exposure; Table 5; read-out: IC50 CCL228
Kindly apply the following: satisfied if IC50 is less than 7 µg/mL, not satisfied in every other case.

Below are worked cases with known answers.
MOLECULE SMILES	CATEGORY LABEL
CC#CC(=O)Nc1ccc2ncc(C#N)c(Nc3ccc(Br)c(Br)c3)c2c1	satisfied
COc1cc2ncc(C#N)c(NC3CCCCC3)c2cc1OC	not satisfied
CC(=O)Nc1ccc2ncc(C#N)c(Nc3cccc(Br)c3)c2c1	satisfied

IC50 under 7 µg/mL? Item: "CCCC(=O)Nc1ccc2ncc(C#N)c(Nc3cccc(Br)c3)c2c1"
not satisfied

Next record, please: "COc1cc2ncc(C#N)c(Nc3cccc(Br)c3)c2cc1OC"
satisfied

* * *

molecular target: Epithelial Cell Kinase (ECK) (Homo sapiens)
Sequence (P29317 24-976, species assumed): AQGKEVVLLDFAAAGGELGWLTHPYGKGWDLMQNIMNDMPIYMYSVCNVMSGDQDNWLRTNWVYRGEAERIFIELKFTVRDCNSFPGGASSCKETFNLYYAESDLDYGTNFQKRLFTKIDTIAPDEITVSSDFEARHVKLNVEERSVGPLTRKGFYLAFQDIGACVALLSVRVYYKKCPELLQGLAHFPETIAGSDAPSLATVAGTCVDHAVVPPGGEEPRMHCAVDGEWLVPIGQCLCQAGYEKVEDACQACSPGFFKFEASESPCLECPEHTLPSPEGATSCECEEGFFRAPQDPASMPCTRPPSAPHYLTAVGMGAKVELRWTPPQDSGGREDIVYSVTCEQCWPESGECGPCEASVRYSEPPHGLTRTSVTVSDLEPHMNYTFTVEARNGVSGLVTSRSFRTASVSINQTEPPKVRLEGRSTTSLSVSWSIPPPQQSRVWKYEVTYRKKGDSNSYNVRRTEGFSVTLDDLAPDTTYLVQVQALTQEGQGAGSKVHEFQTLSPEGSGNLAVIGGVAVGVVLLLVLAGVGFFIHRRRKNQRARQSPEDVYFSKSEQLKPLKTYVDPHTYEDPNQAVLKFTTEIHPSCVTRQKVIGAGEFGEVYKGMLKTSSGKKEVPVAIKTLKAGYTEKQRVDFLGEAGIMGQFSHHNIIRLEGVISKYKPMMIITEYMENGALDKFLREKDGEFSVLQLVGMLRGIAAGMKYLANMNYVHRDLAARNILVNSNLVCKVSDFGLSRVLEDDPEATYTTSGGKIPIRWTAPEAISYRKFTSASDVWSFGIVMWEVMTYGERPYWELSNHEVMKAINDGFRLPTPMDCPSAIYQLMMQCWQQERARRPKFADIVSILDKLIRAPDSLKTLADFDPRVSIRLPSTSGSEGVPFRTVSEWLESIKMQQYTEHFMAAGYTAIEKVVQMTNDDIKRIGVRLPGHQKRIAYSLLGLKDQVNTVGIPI
pIC50: −log10 of the molar value.
Rule: class 1 for pIC50 not less than 5, class 0 for anything less.

Below are worked cases with known answers.
COMPOUND	CATEGORY LABEL
COc1cc2ncc(C#N)c(Nc3cccc(SC)c3)c2cc1OC [Example 294]	class 1
COc1cc2ncc(C#N)c(Nc3cccc(Br)c3)c2cc1NC(=O)C=CCN1CCOCC1 [Example 200]	class 0
CCN(CC)CC=CC(=O)Nc1ccc2ncc(C#N)c(Nc3cccc(Br)c3)c2c1 [Example 100]	class 0
COc1cc2ncc(C#N)c(Nc3ccc(O)cc3C)c2cc1OC [Example 292]	class 1
COc1ccc2c(Nc3cccc(Br)c3)c(C#N)cnc2c1 [Example 3]	class 0

Check this compound for pIC50 at or above 5: CCOc1cc2ncc(C#N)c(Nc3ccc(C)c(O)c3)c2cc1OC [Example 177]
class 1

Next record, please: COc1cc2ncc(C#N)c(Nc3c(C)cccc3O)c2cc1OC [Example 246]
class 1

Next record, please: N#Cc1cnc2ccc(NC(=O)C=CCN3CCOCC3)cc2c1Nc1ccc(F)c(Cl)c1 [Example 147]
class 0

* * *

test system: LX1; assay: Inhibition of cancer cell growth as measured by cell number, LX1; format: cell-based; details: Homo sapiens, LX-1; cell number, Sulforhodamine B, 48 hours exposure; Table 6; read-out: IC50 LX1
MEASURE: IC50 (µg/mL)
Record the value in µg/mL, omitting the unit from your answer.

COMPOUND	IC50 [µg/mL]
COc1cc2ncc(C#N)c(NC3CCCCC3)c2cc1OC [Example 38]	7.52
CC(=O)Nc1ccc2ncc(C#N)c(Nc3cccc(Br)c3)c2c1 [Example 16]	0.644

Return reported IC50; argument: COc1cc2ncc(C#N)c(Sc3ccc(Br)cc3)c2cc1OC [Example 50]
7.21

Next record, please: CC#CC(=O)Nc1ccc2ncc(C#N)c(Nc3ccc(Br)c(Br)c3)c2c1 [Example 22]
0.81

Next record, please: COc1cc2ncc(C#N)c(Nc3cccc(Br)c3)c2cc1OC [Example 31]
6.88

* * *

log10 of IC50 reference
tested on: MCF7; assay: Inhibition of cancer cell growth as measured by cell number, MCF7; format: cell-based, human; conditions: Homo sapiens, MCF7, 48 h, read-out: IC50 MCF7, cell number, Sulforhodamine B, 48 hours exposure; Table 5;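 also: MCF7 was included as a line with little or no EGFR or HER2/neu expression, in contrast to the receptor-overexpressing lines of the panel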
Form field - Quantity: IC50; Unit: µg/mL; Scale: log10

Example results:
MOLECULE SMILES	MEASURE	MEASUREMENT
COc1cc2ncc(C#N)c(Nc3cccc(Br)c3)c2cc1[N+](=O)[O-]	log10 of IC50	0.63
C=CC(=O)Nc1cc2c(Nc3cccc(Br)c3)c(C#N)cnc2cc1OC	log10 of IC50	0.51
N#Cc1cnc2ccc(N)cc2c1Nc1cccc(Br)c1	log10 of IC50	1.91
COc1cc2ncc(C#N)c(Nc3cccc(Cl)c3)c2cc1OC	log10 of IC50	1.39
COc1cc2ncc(C#N)c(Nc3cccc(C(F)(F)F)c3)c2cc1OC	log10 of IC50	0.79

Proceeding to the next compound to report its log10 of IC50.
Return reported log10 of IC50; argument: "C=CC(=O)Nc1ccc2ncc(C#N)c(Nc3cccc(Br)c3)c2c1"
0.34

* * *

biological target: Kinase insert Domain containing Receptor (KDR: the catalytic domain of the VEGF receptor) (Homo sapiens); construct: KDR: the catalytic domain of the VEGF receptor; assay: Inhibition of Kinase insert Domain containing Receptor (KDR); format: biochemical; conditions: pH 7.2; radioactive format; read-out: KDR IC50 (converted);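 also: KDR phosphorylating a Glu:Tyr 4:1 copolymer with P32- or P33-labelled ATP, Mg++ and vanadate, read as acid-insoluble radiolabel, compared with compound-free reaction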
Sequence (P35968 834-1162 limits assumed): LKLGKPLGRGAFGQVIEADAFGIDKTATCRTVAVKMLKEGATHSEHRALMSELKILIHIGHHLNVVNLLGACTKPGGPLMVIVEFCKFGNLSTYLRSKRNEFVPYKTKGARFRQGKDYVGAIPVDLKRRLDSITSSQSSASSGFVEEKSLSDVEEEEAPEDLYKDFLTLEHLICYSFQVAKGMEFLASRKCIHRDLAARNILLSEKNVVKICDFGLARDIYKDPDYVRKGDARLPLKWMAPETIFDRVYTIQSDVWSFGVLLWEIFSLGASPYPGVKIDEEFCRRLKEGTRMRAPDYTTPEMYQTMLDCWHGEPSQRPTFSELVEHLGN
MEASURE: log10(IC50) (log10 of the value in µM)
Form field - Quantity: IC50; Unit: µM; Scale: log10

MOLECULE SMILES	log10(IC50)
COc1cc2c(Nc3ccc(Cl)cc3F)c(C#N)cnc2cc1OCCCCl	0.22
COc1cc2ncc(C#N)c(Nc3ccc(O)cc3C)c2cc1OC	1.47
CCOc1cc2ncc(C#N)c(Nc3cccc(Br)c3)c2cc1OC	0.88
COc1cc2c(Nc3ccc(C)c(O)c3)c(C#N)cnc2cc1OCCN(C)C	0.88
COc1cc2c(Nc3cc(O)c(Cl)cc3F)c(C#N)cnc2cc1OCCCN(C)C	-0.17
COc1ccc2c(Nc3ccc(C)c(O)c3)c(C#N)cnc2c1	0.99
COc1cc2ncc(C#N)c(Nc3cc(C)ccc3O)c2cc1OC	1.47
COc1cc2ncc(C#N)c(Nc3ccc(C)c(O)c3)c2cc1OC	-0.22
COc1ccc2c(Nc3cc(O)c(Cl)cc3F)c(C#N)cnc2c1	0.76

Proceeding to the next compound to report its log10(IC50).
Return reported log10(IC50); argument: "COc1cc2c(Nc3cc(O)c(Cl)cc3F)c(C#N)cnc2cc1OCCN1CCOCC1"
0.80
